test: chemical recovery from spiked human plasma; higher = better extraction; conditions: pooled human plasma; extraction method: SPE only (HLB 96-well), PES comparison experiment
property.label: chemical recovery (%)
Write the number in % without appending the unit.

Entry Cc1cc(O)cc(C)c1[S+](C)[O-] (stereo not drawn) [Methiocarb-sulfoxide phenol] has what chemical recovery?
54.3

Entry CN(Cc1cnc2nc(N)nc(N)c2n1)c1ccc(C(=O)N[C@@H](CCC(=O)O)C(=O)O)cc1 [Methotrexate] has what chemical recovery?
38.1

Entry COC(=O)[C@H](c1ccccc1Cl)N1CCc2sccc2C1 [Clopidogrel] has what chemical recovery?
39.3

Entry CCNc1nc(Cl)nc(NC(C)C)n1 [Atrazine] has what chemical recovery?
50.6

Entry CCCCCCCCCCCCNC [N-Methyldodecylamine] has what chemical recovery?
44.7

Entry CCCOc1nn(C(=O)NS(=O)(=O)c2ccccc2C(=O)OC)c(=O)n1C [Propoxycarbazone] has what chemical recovery?
43.2

Entry CS(=O)(=O)c1ccc(C(=O)C2C(=O)CCCC2=O)c(Cl)c1 [Sulcotrione] has what chemical recovery?
51.3

Entry CCCCCCCCCCOS(=O)(=O)O [Decylsulfate] has what chemical recovery?
30.8

Entry COc1cc(NS(=O)(=O)c2ccc(N)cc2)nc(OC)n1 [Sulfadimethoxine] has what chemical recovery?
45.7

Entry O=C1Nc2ccc(Cl)cc2C(c2ccccc2Cl)=NC1O (stereo not drawn) [Lorazepam] has what chemical recovery?
45.6

Entry O=C1Nc2ccc(Cl)cc2C(c2ccccc2)=NC1O (stereo not drawn) [Oxazepam] has what chemical recovery?
46.6

Entry CC(CN1c2ccccc2Sc2ccccc21)N(C)C (stereo not drawn) [Promethazin] has what chemical recovery?
43.8

Entry C[N+]1(C)CCCCC1 [Mepiquat] has what chemical recovery?
11.3

Entry N#Cc1c(O)c(Cl)c(Cl)c(C#N)c1Cl [Chlorothalonil-4-hydroxy] has what chemical recovery?
33.8

Entry CC(C)c1ccc2sc3ccccc3c(=O)c2c1 [2-Isopropylthioxanthone] has what chemical recovery?
19.8

----------
Some compounds, each annotated with its measured chemical recovery.
assay: chemical recovery from spiked human plasma; higher = better extraction; settings: pooled human plasma; extraction method: SPE only (HLB 96-well), PES comparison experiment
Write the number in % without appending the unit.

# annotated cases, reported chemical recovery shown
C[C@]12C=CC(=O)C=C1CC[C@@H]1[C@@H]2C(=O)C[C@@]2(C)[C@H]1CC[C@]2(O)C(=O)CO	45.5
Cc1cccc(C)c1N(Cn1cccn1)C(=O)C[S+](C)[O-] (stereo not drawn)	51.8
CCc1cccc(C)c1NC(=O)CS(=O)(=O)O	42.9
NCCN1CCNCC1	1.9
CC1C(C)(C)C2=C(C(=O)CCC2)C1(C)C (stereo not drawn)	2.88
CC[C@@]1([C@@H]2O[C@@H]([C@H]3O[C@@](O)(CO)[C@H](C)C[C@@H]3C)C[C@@H]2C)CC[C@H]([C@]2(C)CC[C@]3(C[C@H](O)[C@@H](C)[C@@H]([C@@H](C)[C@@H](OC)[C@H](C)C(=O)O)O3)O2)O1	29.9
CC1(C)[C@H](C=C(Cl)Cl)[C@H]1C(=O)OCc1c(F)c(F)cc(F)c1F [Transfluthrin]	13.8

Now look at this one.
Entry O=C(O)c1ccc(Cl)cc1Cl has what chemical recovery?
57

----------
Some compounds, each annotated with its measured chemical recovery.
assay: chemical recovery from spiked human plasma; higher = better extraction; details: pooled human plasma; extraction method: PES+SPE (3 d PDMS equilibration then HLB SPE)
Write the number in % without appending the unit.

# annotated cases, reported chemical recovery shown
COc1cc2c(c(OC)c1OC)-c1ccc(OC)c(=O)cc1[C@@H](NC(C)=O)CC2	48.5
NC(=O)N1c2ccccc2CC(O)c2ccccc21 (stereo unspecified) [10,11-Dihydro-10-hydroxycarbamazepine]	47.3
CC[C@H]1OC(=O)[C@H](C)[C@@H](O[C@H]2C[C@@](C)(OC)[C@@H](O)[C@H](C)O2)[C@H](C)[C@@H](O[C@@H]2O[C@H](C)C[C@H](N(C)C)[C@H]2O)[C@](C)(O)C[C@@H](C)C(=O)[C@H](C)[C@@H](O)[C@]1(C)O	4.25
O=C1CC2(CCCCC2)CN1	44.2
CCCCCCS(=O)(=O)O	31.6

Now look at this one.
Entry CCOC(=O)C(C#N)=C(c1ccccc1)c1ccccc1 has what chemical recovery?
35.4

----------
assay: chemical recovery from spiked human plasma; higher = better extraction; settings: pooled human plasma; extraction method: SPE only (HLB 96-well)
Some compounds, each annotated with its measured chemical recovery.

# annotated cases, reported chemical recovery shown
CCNC(=O)c1cccc(C)c1 [N-Ethyl-3-methylbenzamide]	37.3%
O=c1[nH]cc(F)c(=O)[nH]1 [5-Fluorouracil]	0.392%
CCCCCCOC(=O)c1ccccc1C(=O)OCCCCCC [Dihexyl-phthalate]	20.6%
COCCOCCOCCOCCOC [Tetraglyme]	28.4%
COP(=O)(OC)C(O)C(Cl)(Cl)Cl (stereo unspecified) [Trichlorfon]	33.1%

Now look at this one.
Entry NS(=O)(=O)c1cc(C(=O)O)c(NCc2ccco2)cc1Cl [Furosemide] has what chemical recovery?
48.4%

----------
experiment: chemical recovery from spiked human plasma; higher = better extraction; conditions: pooled human plasma; extraction method: SPE only (HLB 96-well)
property.label: chemical recovery (%)
Write the number in % without appending the unit.

# annotated cases, reported chemical recovery shown
CCC1(c2ccccc2)C(=O)NCNC1=O	36.6
N#CSCSc1nc2ccccc2s1	44.1
CC(C)CCCCOC(=O)c1ccccc1C(=O)OCCCCC(C)C [Diisoheptyl-phthalate]	12.9
CCc1c(Br)c(Br)c(Br)c(Br)c1Br	3.34
N#Cc1ccccc1C#N	8.49
c1ccc2sc(NC3CCCCC3)nc2c1	51.9
Brc1ccc(Oc2cc(Br)c(Br)cc2Br)c(Br)c1	1.63
O=S(=O)(O)c1nc2ccccc2s1	61.2

Entry O=S(=O)(O)c1ccccc1 has what chemical recovery?
2.56

Entry CCNc1nc(Cl)nc(NC(C)C)n1 has what chemical recovery?
41.5

----------
assay: chemical recovery by SPE of plasma after PDMS sampling; higher = better extraction; conditions: pooled human plasma; extraction method: HLB SPE of plasma after PES; equilibration time (d): 3
Parameter threshold = 6%. Response is Condition met when chemical recovery by SPE of plasma meets or exceeds it, else Condition not met.

Answered examples (3):
CCOP(=S)(OCC)Oc1cc(C)nc(C(C)C)n1	Condition not met
CCCOc1nn(C(=O)NS(=O)(=O)c2ccccc2C(=O)OC)c(=O)n1C	Condition met
O=C(O)C(F)(F)C(F)(F)C(F)(F)F	Condition met

Quick check, chemical recovery by SPE of plasma >= 6%? Clc1ccc(Cl)c(-c2cc(Cl)ccc2Cl)c1
Condition not met

Quick check, chemical recovery by SPE of plasma >= 6%? O=c1[nH]c2ccccc2n1CCCN1CCC(n2c(=O)[nH]c3cc(Cl)ccc32)CC1
Condition met

----------
assay: chemical recovery from spiked human plasma; higher = better extraction; settings: pooled human plasma; extraction method: PES+SPE (3 d PDMS equilibration then HLB SPE)
Some compounds, each annotated with its measured chemical recovery.
Write the number in % without appending the unit.

# annotated cases, reported chemical recovery shown
COc1ccc2c(c1)[C@]13CCCC[C@@H]1[C@H](C2)N(C)CC3	0.431
CCCC[N+]1(C)[C@H]2CC(OC(=O)C(CO)c3ccccc3)C[C@H]1[C@H]1O[C@H]12 (some centres not stated)	42.2
CN(C)CC(c1ccc(O)cc1)C1(O)CCCCC1 (configuration not stated)	31.3
Cc1cc(C(C)(C)c2ccc(O)c(C)c2)ccc1O	52.7
C[N+](C)(C)CC1CO1 (configuration not stated)	0.728

Entry CCOC(=O)CC(O)(CC(=O)OCC)C(=O)OCC [Triethylcitrate] has what chemical recovery?
32.4

Entry CN1C(=O)CC[C@H]1c1cccnc1 has what chemical recovery?
23.3

Entry Nc1ccc(Sc2ccc(N)cc2)cc1 has what chemical recovery?
1.15

Entry Nc1ccc2nc3c(N)cccc3nc2c1 has what chemical recovery?
15

Entry O=C(O)CCCOc1ccc(Cl)cc1Cl has what chemical recovery?
66.6

Entry NS(=O)(=O)c1cc(C(=O)O)c(NCc2ccco2)cc1Cl [Furosemide] has what chemical recovery?
44.9

Entry CC/C(=C(\c1ccccc1)c1ccc(OCCN(C)C)cc1)c1ccccc1 has what chemical recovery?
0.265

----------
assay: chemical recovery by SPE of plasma after PDMS sampling; higher = better extraction; settings: pooled human plasma; extraction method: HLB SPE of plasma after PES; equilibration time (d): 1
Each entry falls into one class according to its chemical recovery by SPE of plasma; the ranges are low interval: < 6%; middle interval: ≥ 6% and < 30%; high interval: ≥ 30%

Answered examples (3):
Cc1cccc(C)c1N(Cn1cccn1)C(=O)CCl	low interval
CCCCCCCCCCCCCC[N+](C)(C)[O-] [N,N-Dimethyltetradecylamine-N-oxide]	middle interval
CCCCCCCCCCCC(=O)N(CCO)CCO [Lauryl diethanolamide]	middle interval

Which bin should I file COCC(C)N(C(=O)C(=O)O)c1c(C)csc1C (stereo not drawn) under?
high interval

Which bin should I file CSc1nnc(C(C)(C)C)c(=O)n1N under?
middle interval
